# system.name: UniProt P56817
# Sequence (P56817 whole entry): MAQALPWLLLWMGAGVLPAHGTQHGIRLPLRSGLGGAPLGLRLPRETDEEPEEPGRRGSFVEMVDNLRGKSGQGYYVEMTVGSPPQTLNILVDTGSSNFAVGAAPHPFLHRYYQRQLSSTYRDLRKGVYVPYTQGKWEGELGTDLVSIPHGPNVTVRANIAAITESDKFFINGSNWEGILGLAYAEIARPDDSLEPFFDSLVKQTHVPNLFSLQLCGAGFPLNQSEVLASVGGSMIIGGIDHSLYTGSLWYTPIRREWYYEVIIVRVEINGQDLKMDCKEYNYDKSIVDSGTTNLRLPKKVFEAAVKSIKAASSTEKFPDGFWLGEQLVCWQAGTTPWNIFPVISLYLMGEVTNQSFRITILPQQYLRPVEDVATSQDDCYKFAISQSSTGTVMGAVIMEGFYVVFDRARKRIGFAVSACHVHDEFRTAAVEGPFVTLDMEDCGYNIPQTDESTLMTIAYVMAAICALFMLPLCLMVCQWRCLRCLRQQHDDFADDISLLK
property: IC50 (µM)
Numbers only; they are read as µM.

Looking up "NC1=NC(c2ccccc2)(c2ccccc2)C(=O)N1" , I see its IC50 listed as 20
